Species on record: Rattus norvegicus
Test: DrugMatrix - Regimen: Daily Repeat
Format: toxicity, organism-based, Sprague-Dawley
Parameters: regimen Daily Repeat, gender Male, age 6-8 weeks
Settings: in vivo, po, 0 mg/kg, 120 h, tissue Blood, route oral GAVAGE, dose level Control, time 5 day, vehicle .5 % CMC
We begin with a simple list: items and their reported ABSOLUTE BASOPHIL.
Could you give me the number in cells/µL? Just the number is fine.

In the examples that follow, each entry is paired with its recorded ABSOLUTE BASOPHIL.
chem.smiles | ABSOLUTE BASOPHIL / cells/µL
CC[C@]1(O)CC[C@H]2[C@@H]3CCC4=CCCC[C@@H]4[C@H]3CC[C@@]21C | 28
Clc1cc2c(cc1Cl)Oc1cc(Cl)c(Cl)cc1O2 | 92

Continue with the next compound.
Ask: Provide only the value of recorded ABSOLUTE BASOPHIL for O=c1cc(-c2ccccc2)oc2ccc3ccccc3c12
Reply: 92
